Hello, the source for this data is patent US10919841B2, in case you need it.

System: mice
Assay details: locomotor activity, 8-h time course protocol
Format: in vivo
Measurement context: Mus musculus, 8 h, read-out: Locomotor Activity 8-Hour ED50
Assay readout: ED50 (mg/kg)
Numbers only, in mg/kg.

Use the examples below as a reference point.
Compound	Scale unit	ED50
CC(NC1CCCC1)C(=O)c1cccc(Cl)c1 (centres unmarked) [Compound 2z]	mg/kg	10.6
CC(NC(C)(C)C)C(=O)c1cccc(Cl)c1 (racemic) [Compound 2a, reference compound]	mg/kg	6.5

Dear colleague, could you please provide ED50 for the compounds listed below?
1. Cc1ccc(C(=O)C(C)NC(C)(C)C)cc1 (centres unmarked) [Compound 2h]
2. Cc1ccc(C(=O)C(C)NC(C)(C)C)cc1Cl (centres unmarked) [Compound 2k]

1. 4.4
2. 60.8

Report ED50 for CC(C)NC(C)C(=O)c1cccc(Cl)c1 (centres unmarked) [Compound 2w] tested on mice. 7.4
